Property: pIC50; scope: individual compounds
# system.tested: human TLR7 (Homo sapiens, UniProt Q9NYK1)
# measurement.notes: TLR7 inhibition reporter assay (HEK-Blue cells, SEAP reporter, gardiquimod stimulation)
# protocol.conditions: HEK-Blue cells overexpressing human TLR7, SEAP reporter, gardiquimod 7.5 μM
Quick note: pIC50 means taking -log10 of the concentration in moles per liter.

compound: Cc1c(-c2[nH]c3ccc(C4CC(NCC(=O)N(C)C)C4)cc3c2C(C)C)cn2ncnc2c1C (stereo not shown)
system.tested: human TLR7 (Homo sapiens, UniProt Q9NYK1)
pIC50: 9.00

compound: COc1cc(-c2[nH]c3ccc(C4CCC(NC(=O)CN5CCOCC5)CC4)cc3c2C(C)C)cn2ncnc12 (stereo not shown) [Example 142]
system.tested: human TLR7 (Homo sapiens, UniProt Q9NYK1)
pIC50: 8.70

compound: Cc1c(-c2[nH]c3ccc(C4CC5CN(CC#N)CC5C4)cc3c2C(C)C)cn2ncnc2c1C (stereo not shown)
system.tested: human TLR7 (Homo sapiens, UniProt Q9NYK1)
pIC50: 8.52

Which value of pIC50 has been reported for CNCC(=O)N1CCOC(c2ccc3[nH]c(-c4cc(C)c5ncnn5c4)c(C(C)C)c3c2)C1 (stereo not shown) [Example 337] in the records? 9.00

* * *

Listed here are molecules together with their documented IC50.
# system.tested: human TLR7 (Homo sapiens)
# Construct: host or cells: HEK-Blue cells
# Sequence (Q9NYK1 27-1049): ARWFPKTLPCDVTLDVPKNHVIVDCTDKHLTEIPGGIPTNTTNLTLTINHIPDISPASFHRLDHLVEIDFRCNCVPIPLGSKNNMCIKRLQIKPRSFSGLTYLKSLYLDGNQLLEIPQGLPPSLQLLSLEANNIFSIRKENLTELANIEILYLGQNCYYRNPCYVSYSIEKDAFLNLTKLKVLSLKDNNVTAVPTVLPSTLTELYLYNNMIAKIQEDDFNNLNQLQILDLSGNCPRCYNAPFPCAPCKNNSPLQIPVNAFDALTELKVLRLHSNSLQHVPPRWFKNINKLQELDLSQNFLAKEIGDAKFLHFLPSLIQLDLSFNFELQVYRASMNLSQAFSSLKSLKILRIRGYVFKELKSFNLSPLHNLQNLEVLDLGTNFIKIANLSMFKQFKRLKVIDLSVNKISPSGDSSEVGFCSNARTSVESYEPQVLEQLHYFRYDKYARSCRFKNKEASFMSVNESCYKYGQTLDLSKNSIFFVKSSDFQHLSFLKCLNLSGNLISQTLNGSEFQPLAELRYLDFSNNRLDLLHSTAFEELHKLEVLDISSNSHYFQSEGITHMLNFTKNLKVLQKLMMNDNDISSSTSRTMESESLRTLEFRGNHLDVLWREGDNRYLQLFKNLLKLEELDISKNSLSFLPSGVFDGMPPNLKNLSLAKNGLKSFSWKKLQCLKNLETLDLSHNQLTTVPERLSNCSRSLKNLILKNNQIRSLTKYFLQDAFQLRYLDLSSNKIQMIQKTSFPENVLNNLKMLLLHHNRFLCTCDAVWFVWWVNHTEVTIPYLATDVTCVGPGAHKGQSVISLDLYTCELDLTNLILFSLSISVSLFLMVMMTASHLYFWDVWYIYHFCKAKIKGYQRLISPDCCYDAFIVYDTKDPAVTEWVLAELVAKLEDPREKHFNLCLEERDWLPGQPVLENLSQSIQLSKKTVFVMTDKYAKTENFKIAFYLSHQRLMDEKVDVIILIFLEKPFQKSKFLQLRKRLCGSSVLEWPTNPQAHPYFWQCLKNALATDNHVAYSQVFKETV
# measurement.notes: TLR7 inhibition reporter assay (HEK-Blue cells, SEAP reporter, gardiquimod stimulation)
# Assay type: cell-based
# protocol.conditions: HEK-Blue cells overexpressing human TLR7, SEAP reporter, gardiquimod 7.5 μM
Please reply with the bare figure in nM and do not write the unit itself.

molecule: Cc1c(-c2[nH]c3ccc(CC4CN(C(=O)CN(C)C)C4)cc3c2C(C)C)cn2ncnc2c1C
unit.of.measurement: nM
IC50: 3
//
molecule: COCC(=O)N1CCCC(c2ccc3[nH]c(-c4cc(C)nc(C)c4)c(C(C)C)c3c2)C1 (stereo not drawn)
unit.of.measurement: nM
IC50: 120
//
molecule: Cc1c(-c2[nH]c3ccc(CC4CCCN4C4COC4)cc3c2C(C)C)cn2cnnc2c1C (stereo not drawn)
unit.of.measurement: nM
IC50: 12
//
molecule: Cc1c(-c2[nH]c3ccc(C4CN(C)C4)cc3c2C(C)C)cn2cnnc2c1C
unit.of.measurement: nM
IC50: 8
//
molecule: Cc1cc(-c2[nH]c3ccc(C4CCC(N5CCN(C)CC5)CC4)cc3c2C(C)C)cc(C)n1 (single isomer, unassigned) [Example 36]
unit.of.measurement: nM
IC50: 2

Which IC50 value belongs to CNC(=O)CN1CCCC(c2ccc3[nH]c(-c4cc(OC)c5ncnn5c4)c(C(C)C)c3c2)C1 (stereo not drawn) [Example 228] ? 2

// IC50 lookup, key: COc1cc(-c2[nH]c3ccc(C4CCC(N5CC(F)(F)C5)CC4)cc3c2C(C)C)cn2ncnc12 (stereo not drawn) [Example 18] 5

Query: IC50; subject: Cc1cc(-c2[nH]c3ccc(C4CN(C)C(C)(C)CO4)cc3c2C(C)C)cn2ncnc12 (single isomer, unassigned) [Example 375] 1

What value of IC50 has been reported for the following molecule? Cc1c(-c2[nH]c3ccc(CC4CN(C(C)C)C4)cc3c2C(C)C)cn2ncnc2c1C 10

For the molecule shown here, COCCN1CC(c2ccc3[nH]c(-c4cn(C)c(=O)c(C)c4C)c(C(C)C)c3c2)C1 , give the reported IC50. 45

Item under review: Cc1cc(-c2[nH]c3ccc(C4CCCN(C(=O)C5(C)CC5)C4)cc3c2C(C)C)cc(C)n1 (stereo not drawn) [Example 202] . Reported IC50? 4

Entry under review: COCCN(C)C1CCC(c2ccc3[nH]c(-c4cc(OC)c5ncnn5c4)c(C(C)C)c3c2)CC1 (single isomer, unassigned) [Example 72] . Reported IC50? 0.3

Which IC50 value is on record for Cc1cc(-c2[nH]c3ccc(C4CN(CC5(C)COC5)CCO4)cc3c2C(C)C)cn2ncnc12 (stereo not drawn) [Example 291] ? 20

State the recorded IC50 for this entry: Cc1c(-c2[nH]c3ccc(C4CN(CC#N)C4)cc3c2C(C)C)cn2ncnc2c1C 4

For the molecule COc1cc(-c2[nH]c3ccc(C4CCC(NC(=O)CN5CC(CO)(CO)C5)CC4)cc3c2C(C)C)cn2ncnc12 (stereo not drawn) , what IC50 is on record? 1
